Below, each entry is listed with its recorded pIC50.
Target: endothelin receptor of rabbit renal artery vascular smooth muscle cells (Oryctolagus cuniculus)
Sequence (A5A8K3 21-427): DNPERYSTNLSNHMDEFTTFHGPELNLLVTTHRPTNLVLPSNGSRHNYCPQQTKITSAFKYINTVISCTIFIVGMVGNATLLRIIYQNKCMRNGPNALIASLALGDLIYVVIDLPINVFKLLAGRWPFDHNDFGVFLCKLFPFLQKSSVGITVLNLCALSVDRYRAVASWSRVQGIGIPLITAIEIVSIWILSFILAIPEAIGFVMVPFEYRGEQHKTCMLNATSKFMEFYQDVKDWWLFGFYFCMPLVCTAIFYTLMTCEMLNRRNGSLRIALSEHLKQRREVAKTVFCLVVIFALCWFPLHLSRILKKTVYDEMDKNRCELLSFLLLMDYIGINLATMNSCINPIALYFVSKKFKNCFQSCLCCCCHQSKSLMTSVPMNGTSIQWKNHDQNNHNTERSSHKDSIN
Assay type: binding
Conditions: [125I]-ET-1 25 pM, 37° C., 2 hours, read-out: IC50 ERBA-A
pIC50: −log10 of the molar value.

[
  {
    "compound": "Cc1cccc(CC(Cc2cccc(C)c2C)C(=O)N[C@](C)(Cc2c[nH]c3ccccc23)C(=O)O)c1C",
    "operator": "<",
    "pIC50": 4.60
  },
  {
    "compound": "CC(Cc1ccc(O)cc1)(NC(=O)C(Cc1cccc2ccccc12)Cc1cccc2ccccc12)C(=O)O (racemic)",
    "operator": "=",
    "pIC50": 4.60
  },
  {
    "compound": "C[C@@](Cc1c[nH]c2ccccc12)(NC(=O)C(Cc1cccc2ccccc12)Cc1cccc2ccccc12)C(=O)O",
    "operator": "<",
    "pIC50": 4.52
  },
  {
    "compound": "C[C@](Cc1c[nH]c2ccccc12)(NC(=O)C(Cc1ccc2ccccc2c1)Cc1ccc2ccccc2c1)C(=O)O",
    "operator": "<",
    "pIC50": 4.60
  },
  {
    "compound": "C[C@](Cc1c[nH]c2ccccc12)(NC(=O)C(Cc1cccc2ccccc12)Cc1cccc2ccccc12)C(=O)O",
    "operator": "=",
    "pIC50": 5.00
  },
  {
    "compound": "C[C@](Cc1c[nH]c2ccccc12)(NC(=O)C(Cc1ccccc1)Cc1cccc2ccccc12)C(=O)O (stereo partly shown)",
    "operator": "=",
    "pIC50": 4.59
  },
  {
    "compound": "CC(Cc1ccccc1)(NC(=O)C(Cc1cccc2ccccc12)Cc1cccc2ccccc12)C(=O)O (racemic)",
    "operator": "=",
    "pIC50": 4.85
  }
]

Taken from patent US5610177A.
